Reference for the values: patent US20260198495A1

- System: 3rd-instar larvae of Ostrinia furnacalis Guenee
- assay protocol: Synergism screening (Bliss) of I-72 + ecdysteroid and juvenile hormone insecticides, Example 51, Table 51
- Type: in vivo
- reported conditions: Ostrinia furnacalis, 72 h, read-out: Measured mortality rate
Could you please mark Condition met for values of mortality at 2 µg/mL below 10% and Condition not met for values at or above it?

Example cases with answers are listed next.
COc1cccc(C(=O)NN(C(=O)c2cc(C)cc(C)c2)C(C)(C)C)c1C [Methoxyfenozide]; Condition not met
Nc1nc(N)nc(NC2CC2)n1; Condition not met

Would you kindly verify if mortality at 2 µg/mL of COC(C)(C)CCC[C@H](C)C/C=C/C(C)=C/C(=O)OC(C)C (racemic) is strictly less than 10%?
Condition not met

Would you kindly verify if mortality at 2 µg/mL of CC(COc1ccc(Oc2ccccc2)cc1)Oc1ccccn1 (centres unmarked) is strictly less than 10%?
Condition met

Would you kindly verify if mortality at 2 µg/mL of CCc1ccc(C(=O)NN(C(=O)c2cc(C)cc(C)c2)C(C)(C)C)cc1 [Tebufenozide] is strictly less than 10%?
Condition not met

---

- System: 3rd-instar larvae of Yponomeuta evonymallus (Linnaeus)
- assay protocol: Synergism screening (Bliss) of I-72 + pyrethroid insecticides, Example 37, Table 37
- Format: in vivo
- reported conditions: single pesticide, concentration 0.5 mg/L; leaf dipping; 72 hours
- Experimental: Test target: 3rd-instar larvae of Yponomeuta evonymallus (Linnaeus). Preparation of the pesticide solution: according to different test requirements, the test samples were accurately weighed respectively with an electronic analytical balance. […] The synergism of the mixture was evaluated by the Bliss method. […]
Documented Measured mortality rate (%) across a set of compounds
Please respond with the number in % and leave the unit unwritten.

The compound listed as CC(C)[C@H](C(=O)O[C@H](C#N)c1cccc(Oc2ccccc2)c1)c1ccc(Cl)cc1 [Esfenvalerate] has a reported Measured mortality rate (%) of 9.4

The compound listed as CC1(C)C(C(=O)OC(C#N)c2cccc(Oc3ccccc3)c2)C1(C)C (stereo not drawn) has a reported Measured mortality rate (%) of 13.3

The compound listed as CC1(C)C(C=C(Cl)Cl)C1C(=O)OC(C#N)c1ccc(F)c(Oc2ccccc2)c1 (stereo not drawn) [Cyfluthrin] has a reported Measured mortality rate (%) of 10.0

The compound listed as CC1(C)C(C=C(Cl)Cl)C1C(=O)OC(C#N)c1cccc(Oc2ccccc2)c1 (stereo not drawn) has a reported Measured mortality rate (%) of 9.1

The compound listed as CC1(C)C(C=C(Cl)Cl)C1C(=O)OC(C#N)c1ccc(F)c(Oc2ccccc2)c1 (stereo not drawn) [Beta-cyfluthrin] has a reported Measured mortality rate (%) of 12.9

The compound listed as CC1(C)[C@H](C=C(Cl)Cl)[C@H]1C(=O)O[C@H](C#N)c1cccc(Oc2ccccc2)c1 has a reported Measured mortality rate (%) of 10.3

---

Documented mortality at 3 µg/mL across a set of compounds
- System: Aphis craccivora nymphs
- assay protocol: Synergism screening (Bliss) of I-72 + pyrethroid insecticides, Example 38, Table 38
- Assay type: in vivo
- reported conditions: Aphis craccivora, in Vicia faba, 48 h, read-out: Measured mortality rate (%), single pesticide, concentration 3 mg/L, broad bean seedling spraying
Answer as a quantity: numeral, then unit.

Below, 3 compounds whose answers are already recorded.
CC1(C)[C@H](C(=O)O[C@H](C#N)c2cccc(Oc3ccccc3)c2)[C@@H]1C=C(Br)Br; 61.4%
CC(C)C(C(=O)OC(C#N)c1cccc(Oc2ccccc2)c1)c1ccc(Cl)cc1 (stereo not shown) [Fenvalerate]; 51.1%
CC1(C)C(C=C(Cl)Cl)C1C(=O)OCc1cccc(Oc2ccccc2)c1 (stereo not shown); 64.8%

Turning to the following compound.
The compound listed as Cc1c(COC(=O)[C@@H]2[C@H](/C=C(\Cl)C(F)(F)F)C2(C)C)cccc1-c1ccccc1 (racemic) has a reported mortality at 3 µg/mL of 62%
